species: Rattus norvegicus; test: Open TG-GATES - Regimen: Daily Repeat; assay type: toxicity, organism-based, Sprague-Dawley; set-up: regimen Daily Repeat, gender Male, age 6 weeks; conditions: in vivo, po, 0 mg/kg, […], tissue Blood, route gavage, dose level Control, time 28 day
Below: a set of entries, each annotated with reported RBC.
// units = x10_4/ul; emit number, no label

Worked cases, answers included:
| Compound | RBC [x10_4/ul] |
| --- | --- |
| COc1ccc2c(c1)c(CC(=O)O)c(C)n2C(=O)c1ccc(Cl)cc1 | 792.2 |
| CCCC(CCC)C(=O)O | 775.4 |
| CO[C@H]1/C=C/O[C@@]2(C)Oc3c(C)c(O)c4c(O)c(c(/C=N/N5CCN(C)CC5)c(O)c4c3C2=O)NC(=O)/C(C)=C\C=C\[C@H](C)[C@H](O)[C@@H](C)[C@@H](O)[C@@H](C)[C@H](OC(C)=O)[C@@H]1C | 799.6 |
| CN(C)CCC=C1c2ccccc2CCc2ccccc21 | 760.8 |

Exam item: Consider the molecule shown here: Cn1c(=O)c2[nH]cnc2n(C)c1=O.O What is its recorded RBC?
Marked response: 783

###

species: Rattus norvegicus; assay: Open TG-GATES - Regimen: Single; format: toxicity, organism-based, Sprague-Dawley; design: regimen Single, gender Male, age 6 weeks; conditions: in vivo, po, 100 mg/kg, 6 h, tissue Plasma, route gavage, dose level Low
Experimental Readout: TG

Worked cases, answers included:
| Compound | TG |
| --- | --- |
| CCc1cc(C(N)=S)ccn1 [ETHIONAMIDE] | 54.4 mg/dL |
| C[C@H](CS)C(=O)N1CCC[C@H]1C(=O)O | 62.6 mg/dL |
| O=C(O)c1cn(C2CC2)c2cc(N3CCNCC3)c(F)cc2c1=O | 39.8 mg/dL |

Now for the compound whose TG we want.
Exam item: Consider the compound shown here: O=C(O)c1cc(/N=N/c2ccc(S(=O)(=O)Nc3ccccn3)cc2)ccc1O What is its recorded TG?
Marked response: 61.2 mg/dL

###

Below: a set of entries, each annotated with reported ALP.
organism: Rattus norvegicus; assay: Open TG-GATES - Regimen: Daily Repeat; format: toxicity, organism-based, Sprague-Dawley; design: regimen Daily Repeat, gender Male, age 6 weeks; settings: in vivo, po, 0 mg/kg, […], tissue Plasma, route gavage, dose level Control, time 14 day
// units = IU/L; emit number, no label

Exam item: Consider the compound shown here: CO[C@H]1/C=C/O[C@@]2(C)Oc3c(C)c(O)c4c(O)c(c(/C=N/N5CCN(C)CC5)c(O)c4c3C2=O)NC(=O)/C(C)=C\C=C\[C@H](C)[C@H](O)[C@@H](C)[C@@H](O)[C@@H](C)[C@H](OC(C)=O)[C@@H]1C [RIFAMPIN] What is its recorded ALP?
Marked response: 668.4

###

Below: a set of entries, each annotated with reported KIDNEY_L.
species on record: Rattus norvegicus; assay: Open TG-GATES - Regimen: Single; assay type: toxicity, organism-based, Sprague-Dawley; set-up: regimen Single, gender Male, age 6 weeks; conditions: in vivo, po, 1000 mg/kg, 9 h, tissue Kidney, route gavage, dose level High
# answer = value followed by unit

| Compound | Test Result |
| --- | --- |
| Clc1ccccc1CN1CCc2sccc2C1 [TICLOPIDINE] | 1 g |
| C[C@H](CS)C(=O)N1CCC[C@H]1C(=O)O [CAPTOPRIL] | 1 g |
| CCc1cc(C(N)=S)ccn1 [ETHIONAMIDE] | 1 g |
| O=C(O)c1cc(/N=N/c2ccc(S(=O)(=O)Nc3ccccn3)cc2)ccc1O [SULFASALAZINE] | 0.9 g |

Now for the compound whose KIDNEY_L we want.
Exam item: Consider the compound shown here: O=C(O)c1cn(C2CC2)c2cc(N3CCNCC3)c(F)cc2c1=O [CIPROFLOXACIN] What is its recorded KIDNEY_L?
Marked response: 0.8 g

###

organism: Rattus norvegicus; experiment: Open TG-GATES - Regimen: Single; format: toxicity, organism-based, Sprague-Dawley; set-up: regimen Single, gender Male, age 6 weeks; settings: in vivo, po, 0 mg/kg, 9 h, tissue Plasma, route gavage, dose level Control
Experimental Readout: LDH (IU/L)
// units = IU/L; emit number, no label

| Compound | LDH (IU/L) |
| --- | --- |
| CSc1ccc2c(c1)N(CCC1CCCCN1C)c1ccccc1S2 (stereo unspecified) [THIORIDAZINE] | 63 |
| NC(=O)N/N=C/c1ccc([N+](=O)[O-])o1 [NITROFURAZONE] | 55.2 |
| O=C(O)c1cn(C2CC2)c2cc(N3CCNCC3)c(F)cc2c1=O [CIPROFLOXACIN] | 92.4 |
| CCc1cc(C(N)=S)ccn1 [ETHIONAMIDE] | 66.6 |
| Cn1c(=O)c2[nH]cnc2n(C)c1=O.O [THEOPHYLLINE] | 180.6 |

Now for the compound whose LDH we want.
Exam item: Consider the compound shown here: C[C@H](CS)C(=O)N1CCC[C@H]1C(=O)O [CAPTOPRIL] What is its recorded LDH?
Marked response: 53.8

###

Below: a set of entries, each annotated with reported MCHC.
organism: Rattus norvegicus; experiment: Open TG-GATES - Regimen: Daily Repeat; type: toxicity, organism-based, Sprague-Dawley; design: regimen Daily Repeat, gender Male, age 6 weeks; settings: in vivo, po, 0 mg/kg, 72 h, tissue Blood, route gavage, dose level Control, time 3 day
# answer = value followed by unit

| Compound | MCHC |
| --- | --- |
| CCCC(CCC)C(=O)O [VALPROIC ACID] | 34.2% |

Exam item: Consider the compound shown here: Cn1c(=O)c2[nH]cnc2n(C)c1=O.O [THEOPHYLLINE] What is its recorded MCHC?
Marked response: 33.5%

Exam item: Consider the compound shown here: CN(C)CCC=C1c2ccccc2CCc2ccccc21 [AMITRIPTYLINE] What is its recorded MCHC?
Marked response: 32.7%

Exam item: Consider the compound shown here: CC(=O)Oc1ccccc1C(=O)O [ASPIRIN] What is its recorded MCHC?
Marked response: 34.2%

Exam item: Consider the compound shown here: O=C(O)c1cn(C2CC2)c2cc(N3CCNCC3)c(F)cc2c1=O [CIPROFLOXACIN] What is its recorded MCHC?
Marked response: 33.5%

Exam item: Consider the compound shown here: COc1ccc2c(c1)c(CC(=O)O)c(C)n2C(=O)c1ccc(Cl)cc1 [INDOMETHACIN] What is its recorded MCHC?
Marked response: 33.1%

###

Below: a set of entries, each annotated with reported RALB.
organism: Rattus norvegicus; experiment: Open TG-GATES - Regimen: Single; format: toxicity, organism-based, Sprague-Dawley; set-up: regimen Single, gender Male, age 6 weeks; details: in vivo, po, 1000 mg/kg, 24 h, tissue Plasma, route gavage, dose level High
// units = g/dL; emit number, no label

Worked cases, answers included:
| Compound | Test Result |
| --- | --- |
| O=C(O)c1cc(/N=N/c2ccc(S(=O)(=O)Nc3ccccn3)cc2)ccc1O | 3.4 |
| O=C(O)c1cn(C2CC2)c2cc(N3CCNCC3)c(F)cc2c1=O | 4 |
| C[C@H](CS)C(=O)N1CCC[C@H]1C(=O)O | 3.9 |

Exam item: Consider the compound shown here: Clc1ccccc1CN1CCc2sccc2C1 What is its recorded RALB?
Marked response: 3.6

Exam item: Consider the compound shown here: CCc1cc(C(N)=S)ccn1 [ETHIONAMIDE] What is its recorded RALB?
Marked response: 3.6

###

species: Rattus norvegicus; assay: Open TG-GATES - Regimen: Single; assay type: toxicity, organism-based, Sprague-Dawley; parameters: regimen Single, gender Male, age 6 weeks; conditions: in vivo, po, 300 mg/kg, 3 h, tissue Plasma, route gavage, dose level Middle
Below: a set of entries, each annotated with reported TBIL.

| Molecule | Test Result |
| --- | --- |
| CCc1cc(C(N)=S)ccn1 [ETHIONAMIDE] | 0.4 mg/dL |
| O=C(O)c1cn(C2CC2)c2cc(N3CCNCC3)c(F)cc2c1=O | 0.4 mg/dL |
| C[C@H](CS)C(=O)N1CCC[C@H]1C(=O)O | 0.4 mg/dL |

Exam item: Consider the molecule shown here: O=C(O)c1cc(/N=N/c2ccc(S(=O)(=O)Nc3ccccn3)cc2)ccc1O What is its recorded TBIL?
Marked response: 0.1 mg/dL

Exam item: Consider the molecule shown here: Clc1ccccc1CN1CCc2sccc2C1 What is its recorded TBIL?
Marked response: 0.1 mg/dL

###

species on record: Rattus norvegicus; test: Open TG-GATES - Regimen: Single; format: toxicity, organism-based, Sprague-Dawley; design: regimen Single, gender Male, age 6 weeks; details: in vivo, po, 100 mg/kg, 6 h, tissue Blood, route gavage, dose level Low
Below: a set of entries, each annotated with reported Hb.

Exam item: Consider the molecule shown here: C[C@H](CS)C(=O)N1CCC[C@H]1C(=O)O What is its recorded Hb?
Marked response: 12.9 g/dL

Exam item: Consider the molecule shown here: O=C(O)c1cc(/N=N/c2ccc(S(=O)(=O)Nc3ccccn3)cc2)ccc1O What is its recorded Hb?
Marked response: 13.2 g/dL

Exam item: Consider the molecule shown here: CCc1cc(C(N)=S)ccn1 [ETHIONAMIDE] What is its recorded Hb?
Marked response: 14.2 g/dL

Exam item: Consider the molecule shown here: O=C(O)c1cn(C2CC2)c2cc(N3CCNCC3)c(F)cc2c1=O What is its recorded Hb?
Marked response: 13 g/dL

Exam item: Consider the molecule shown here: Clc1ccccc1CN1CCc2sccc2C1 What is its recorded Hb?
Marked response: 13.4 g/dL

# credit: ChEMBL document CHEMBL3885861
